system: Mycobacterium tuberculosis Erdman (autoluminescent); test: AUC25, normalised area under dose response up to IC25 (three-drug combination) (fraction (0-1)); higher = more potent at low dose; conditions: in vitro model: cholesterol 0.05 mM; time point: terminal (~4-5 doublings, model-specific)
measured-attribute: AUC25

# AUC25 measured on Mycobacterium tuberculosis Erdman (autoluminescent) for item NNC(=O)c1ccncc1 [isoniazid] + O=[N+]([O-])c1cn2c(n1)OC[C@@H](OCc1ccc(OC(F)(F)F)cc1)C2 [pretomanid] + CO[C@H]1/C=C/O[C@@]2(C)Oc3c(C)c(O)c4c(O)c(c(/C=N/N5CCN(C6CCCC6)CC5)c(O)c4c3C2=O)NC(=O)/C(C)=C\C=C\[C@H](C)[C@H](O)[C@@H](C)[C@@H](O)[C@@H](C)[C@H](OC(C)=O)[C@@H]1C [rifapentine] = 0.0863

# AUC25 measured on Mycobacterium tuberculosis Erdman (autoluminescent) for item CC(=O)NC[C@H]1CN(c2ccc(N3CCOCC3)c(F)c2)C(=O)O1 [linezolid] + COc1c(N2C[C@@H]3CCCN[C@@H]3C2)c(F)cc2c(=O)c(C(=O)O)cn(C3CC3)c12 [moxifloxacin] + O=[N+]([O-])c1cn2c(n1)OC[C@@H](OCc1ccc(OC(F)(F)F)cc1)C2 [pretomanid] = 0.134

# AUC25 measured on Mycobacterium tuberculosis Erdman (autoluminescent) for item CC(=O)NC[C@H]1CN(c2ccc(N3CCOCC3)c(F)c2)C(=O)O1 [linezolid] + O=[N+]([O-])c1cn2c(n1)OC[C@@H](OCc1ccc(OC(F)(F)F)cc1)C2 [pretomanid] + CO[C@H]1/C=C/O[C@@]2(C)Oc3c(C)c(O)c4c(O)c(c(/C=N/N5CCN(C)CC5)c(O)c4c3C2=O)NC(=O)/C(C)=C\C=C\[C@H](C)[C@H](O)[C@@H](C)[C@@H](O)[C@@H](C)[C@H](OC(C)=O)[C@@H]1C [rifampicin] = 0.127

meta.source: the supplement of paper PMC8617591
